Source of measurements: PubChem BioAssay (NCI)

Assignment: determine reported TGI for the given compounds.
Test system: OVCAR-3 ovarian
Protocol: NCI tumour cell line growth inhibition, 48 h

A selection of reference data follows.
INPUT: Output measured TGI for this item: O=C(Nc1ccccc1Cl)c1cccc(NC2=C(Cl)C(=O)N(Cc3ccccc3)C2=O)c1
OUTPUT: 33.3 µM

INPUT: Output measured TGI for this item: O=c1cccc(C#CC#CCCCO)o1
OUTPUT: 4.94 µM

INPUT: Output measured TGI for this item: COc1cc2c(cc1C)NC(=O)/C2=C\c1ccncc1
OUTPUT: 10.3 µM

INPUT: Output measured TGI for this item: CC1(C)CCCCCCCCCC(C)(CCCCCCCCCCCCO)C1=O (stereo unspecified)
OUTPUT: 29.4 µM

Batch of 7 compounds: report TGI for each.
1. COc1ccc(Oc2ccccc2NC(=O)CNC(=O)c2cccc3ccccc23)cc1
2. CC1=C(Cl)C[C@@H](/C(C)=C\Cl)O[C@@]1(O)C(Br)Br
3. COc1cccc(C2C(C#N)=C(N)Oc3c2ccc2ccccc32)c1 (stereo unspecified)
4. NS(=O)(=O)c1cccc(-c2ccc3c(NC(=O)C4CC4)n[nH]c3c2)c1
5. N#CC(C#N)=C(N)/C(C#N)=C/c1ccc2[nH]ccc2c1
6. CN1Cc2c(nc(-c3ccc(Br)cc3)c[n+]2[O-])N(C)C1
7. COc1cc(C2CC(=O)Nc3c2cc(Br)c2ccccc32)cc(Br)c1OC (stereo unspecified)

OUTPUT:
1. > 25 µM
2. 31.3 µM
3. 0.0439 µM
4. > 17.6 µM
5. > 100 µM
6. > 100 µM
7. 2.52 µM
